// data source = patent US11339171B2

assay: Pharmacokinetics in ICR mice after intravenous and intragastric administration; type: in vivo; conditions: male, ICR, mouse, plasma, iv, 2 mg/kg, IV 2 mg/kg, ICR mice, individual animal; read-out: Cmax
experimental.endpoint: Cmax

Req: What Cmax value was documented for this compound, COc1ncc(-c2nc3c(n2C(C)C)[C@@]2(C(=O)Nc4cc(Cl)ccc42)N(c2cc(Cl)ccc2C)C3=O)c(OC)n1 [Example S-2] ?
Resp: 477 ng/mL

Req: What Cmax value was documented for this compound, COc1cc(OC)c(-c2nc3c(n2C(C)C)[C@@]2(C(=O)Nc4cc(Cl)ccc42)N(c2cc(Cl)ccc2C)C3=O)cn1 [Example S-11] ?
Resp: 1300 ng/mL

Req: What Cmax value was documented for this compound, COc1ncc(-c2nc3c(n2C(C)C)[C@@]2(C(=O)Nc4cc(Cl)ccc42)N(c2cccc(Cl)c2)C3=O)c(OC)n1 [Example S-1] ?
Resp: 330 ng/mL
